Target Entity: 5-HT1A receptor (Homo sapiens)
Sequence (P08908 whole entry): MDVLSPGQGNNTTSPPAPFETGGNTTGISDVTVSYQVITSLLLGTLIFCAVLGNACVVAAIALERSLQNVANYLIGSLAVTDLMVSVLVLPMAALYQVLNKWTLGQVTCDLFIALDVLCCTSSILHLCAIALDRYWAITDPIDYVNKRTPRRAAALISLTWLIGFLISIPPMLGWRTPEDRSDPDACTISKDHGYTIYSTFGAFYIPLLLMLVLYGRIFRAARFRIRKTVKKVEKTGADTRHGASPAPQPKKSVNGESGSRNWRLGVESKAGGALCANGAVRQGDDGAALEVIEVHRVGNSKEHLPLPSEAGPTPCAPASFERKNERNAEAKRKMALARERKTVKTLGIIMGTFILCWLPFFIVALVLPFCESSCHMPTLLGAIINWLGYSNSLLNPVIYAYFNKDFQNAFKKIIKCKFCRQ
Protocol Description: PDSP GPCR binding affinity, 5-HT1A
Recorded Endpoint: Ki

# returns recorded Ki (system: 5-HT1A receptor (Homo sapiens)) for CC12CN(c3ccccc3)c3ccccc3C1CCN2 (stereo not shown)
> 10 µM
